ASSAY_PROCEDURE: NCI Yeast Anticancer Drug Screen. Data for the wt2 strain (AID 169)
PROTOCOL_CONDITIONS: S. cerevisiae wt2 strain growth inhibition; at 33.0 µM
This is part of a sample that, as a whole, favours compounds with a hit. Of some 79,000 tested, about 15% had one in any assay. Active and inactive are the calls of the source. Rule as the data show it: active = growth inhibition above about 70%; inactive = the rest.
Return exactly one item of active, inactive

Q. // return assay outcome for C#CCN(Cc1ccc2nc(N)[nH]c(=O)c2c1)c1ccc(C(=O)NC(CCC(=O)O)C(=O)O)cc1 (stereo unspecified)
A. inactive

Q. // return assay outcome for `Brc1ccccc1-c1ncc(-c2ccccc2)o1`
A. inactive

Q. // return assay outcome for `CC(C)(C)N=C(NO)c1ccccc1`
A. inactive

Q. // return assay outcome for `COc1cc2ccnc(-c3c4ccccc4c(N)c4c(OC)c(OC)ccc34)c2cc1OC`
A. inactive

Q. // return assay outcome for `CCCCOCn1c(=O)[nH]c(=O)c2cc(Br)ccc21`
A. inactive

Q. // return assay outcome for `CC1=C(SCc2ccccc2)C(=O)c2ccccc2C1=O`
A. active

Q. // return assay outcome for `CNC(=O)OCc1c(COC(=O)NC)c(-c2ccc(Cl)c(Cl)c2)n2c1SCC2`
A. inactive

Q. // return assay outcome for `CCOC1=C/C(=N\Nc2ccc([N+](=O)[O-])cc2)CCC1`
A. inactive

Q. // return assay outcome for CC(=O)OCC1OC2OC(=O)NC2C(OC(C)=O)C1OC(C)=O (stereo unspecified)
A. inactive

Q. // return assay outcome for Cn1c(=O)c2c(nc(N)n2C2OC(CO)C(O)C2O)n(C)c1=O (stereo unspecified)
A. inactive

Q. // return assay outcome for CC1CC(C)(C)CC(OCCN2CCCCC2)(c2ccccc2)C1 (stereo unspecified)
A. inactive

Q. // return assay outcome for `Cc1cc(N(CCOS(C)(=O)=O)CCOS(C)(=O)=O)ccc1C=Nc1ccc(-c2csc(-c3ccccc3)n2)c(Cl)c1`
A. active

Q. // return assay outcome for `CC(C)(CCCCC(C)(C)[N+](C)(C)C)[N+](C)(C)C`
A. inactive

Q. // return assay outcome for Nc1ncnc2c1ncn2C1OC(CO)CC1O (stereo unspecified)
A. inactive

Q. // return assay outcome for O=C(c1ccc([N+](=O)[O-])cc1)C1N=NCC1c1ccccc1 (stereo unspecified)
A. inactive

Q. // return assay outcome for `CC1=C(C(=O)NCc2ccccc2)C(c2ccccc2)C(C(=O)NCc2ccccc2)=C(C)N1`
A. inactive

Q. // return assay outcome for `c1ccc(-c2cnc3ccccc3c2)cc1`
A. inactive

Q. // return assay outcome for COc1ccc(C2C3=C(COC3=O)OC(C)(C)Oc3cc4c(cc32)OCO4)cc1OC (stereo unspecified)
A. inactive

Q. // return assay outcome for `CN(C)[C@@H]1C(=O)C(C(N)=O)=C(O)[C@@]2(O)C(=O)C3=C(O)c4c(O)cccc4C[C@H]3C[C@@H]12`
A. active

Q. // return assay outcome for `OCc1ccccc1Cc1ccccc1`
A. inactive

Q. // return assay outcome for CC[N+]1(C)CCC(O)(c2ccc(OC)cc2)C(C(=O)c2ccc(OC)cc2)C1 (stereo unspecified)
A. inactive

Q. // return assay outcome for `CCCCc1ccc(-n2c(C)c(COC(=O)NC)c(COC(=O)NC)c2C)cc1`
A. active

Q. // return assay outcome for `O=[N+]([O-])c1cccc2nc3ccccc3c(NCCC[N+]3([O-])CCCCC3)c12`
A. active

Q. // return assay outcome for `CCOC(=O)c1[nH]cc(C)c1-c1cccn1-c1ccc(Cl)cc1[N+](=O)[O-]`
A. active

Q. // return assay outcome for `CCCCCCCCCCCC1=NCCO1`
A. inactive

Q. // return assay outcome for `CC(=O)Nc1ccc(/C=C/[N+](=O)[O-])cc1`
A. inactive

Q. // return assay outcome for `CCN(CC)CCNc1ccc2ncn3c4cc(OC)c(OC)c(=O)c4c(O)c1c23`
A. inactive

Q. // return assay outcome for `O=C(C[n+]1ccc2ccccc2c1)c1ccc2ccccc2c1`
A. inactive

Q. // return assay outcome for `N#CC(C#N)=NNc1ccc(S(=O)(=O)O)cc1`
A. inactive

Q. // return assay outcome for CCCCNC1CCC2(SCCS2)c2[nH]c3ccccc3c21 (stereo unspecified)
A. inactive

Q. // return assay outcome for `CN(C)CCCCN1c2ccccc2Sc2ccc(N=[N+]=[N-])cc21`
A. inactive

Q. // return assay outcome for `O=[N+]([O-])c1ccc2c(c1)/C(=N/N=C1c3ccccc3Cc3ccccc31)c1cc([N+](=O)[O-])cc([N+](=O)[O-])c1-2`
A. active

Q. // return assay outcome for `CN(C)/C=C/c1nnc([N+](=O)[O-])s1`
A. inactive

Q. // return assay outcome for `CCOC(=O)C#Cc1ccc([N+](=O)[O-])cc1`
A. inactive

Q. // return assay outcome for `CCc1c(Cl)c(C)cc(O)c1Cl`
A. inactive

Q. // return assay outcome for `CCO/C(C)=C(/C#N)C(N)=S`
A. inactive
